Molecular target: RSV-F of RSV subtype A strain A2 (1540) (respiratory syncytial virus subtype A, …, UniProt P03420 26-574)
Experiment: cell-based or functional assay
PROPERTY MEASURED: IC50 [pM] for RSV A2 Neutralization, Trial 7 (pM)
Answers are plain numbers, in pM.

Solved cases below.
Supply measured IC50 [pM] for RSV A2 Neutralization, Trial 7 of H1H3592P3 (antibody, V domains shown) VH: EVQLVESGGDLVQPGRSLRLSCVASGFTFDDYAMHWVRQAPGKGLEWVSGVSWSGSTVGYADSVKGRFTVSRDNAQKSLYLQMNSLRAEDTALYYCVKDAYKFNYYYYGLDVWGQGTTVTVSS VL: EIVMTQSPATLSVSPGERATLSCRASQTILSNLAWYLQKPGQAPRLLIYGASTRATGLPARFSGSGSGTEFTLTISSLQSEDFAVYYCQQYNNWPLTFGGGTKVEIK in your reply.
10

Supply measured IC50 [pM] for RSV A2 Neutralization, Trial 7 of H1H3591P (antibody, V domains shown) VH: EVQLVESGGGLVQPGRSLRLSCAASGFTFDDYAMHWVRQTPGKGLEWISGISWSSGTIVYADSVKGRFTISRDNAKNSLYLQMNSLRGEDTALYHCAKDGYRWKSYSYGLDVWGQGTTVTVSS VL: EIVMTQSPATLSLSPGERATLSCRPSQSVINNLAWYQQKPGQAPRLLIFGASSRATGIPARFSGSGSGTEFTLTISSLQSEDFALYYCQQYNNWPLTFGGGTKVEIK in your reply.
6

Supply measured IC50 [pM] for RSV A2 Neutralization, Trial 7 of Control I (palivizumab sequence) (antibody, V domains shown, also called Control 1; SYNAGIS) VH: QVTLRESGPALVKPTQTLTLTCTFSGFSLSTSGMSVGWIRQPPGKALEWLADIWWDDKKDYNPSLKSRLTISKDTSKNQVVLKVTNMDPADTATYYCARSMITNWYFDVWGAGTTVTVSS VL: DIQMTQSPSTLSASVGDRVTITCKCQLSVGYMHWYQQKPGKAPKLLIYDTSKLASGVPSRFSGSGSGTEFTLTISSLQPDDFATYYCFQGSGYPFTFGGGTKLEIKR in your reply.
250

Supply measured IC50 [pM] for RSV A2 Neutralization, Trial 7 of H1H3592P (antibody, V domains shown) VH: EVQLVESGGDLVQPGRSLRLSCVASGFTFDDYAMHWVRQAPGKGLEWVSGVSWSGSTVGYADSVKGRFTVSRDNAQKSLYLQMNSLRAEDTALYYCVKDAYKWNYYYYGLDVWGQGTTVTVSS VL: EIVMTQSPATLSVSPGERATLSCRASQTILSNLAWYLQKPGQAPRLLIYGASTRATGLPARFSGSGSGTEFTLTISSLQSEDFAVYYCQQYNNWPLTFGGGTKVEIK in your reply.
4

Supply measured IC50 [pM] for RSV A2 Neutralization, Trial 7 of Control II (motavizumab sequence) (antibody, V domains shown) VH: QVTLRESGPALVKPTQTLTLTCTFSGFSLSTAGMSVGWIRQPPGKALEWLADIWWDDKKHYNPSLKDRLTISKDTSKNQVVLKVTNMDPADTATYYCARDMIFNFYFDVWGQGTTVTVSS VL: DIQMTQSPSTLSASVGDRVTITCSASSRVGYMHWYQQKPGKAPKLLIYDTSKLASGVPSRFSGSGSGTEFTLTISSLQPDDFATYYCFQGSGYPFTFGGGTKVEIKR in your reply.
12

Below: the item to evaluate.
Supply measured IC50 [pM] for RSV A2 Neutralization, Trial 7 of H1H3627N (antibody, V domains shown) VH: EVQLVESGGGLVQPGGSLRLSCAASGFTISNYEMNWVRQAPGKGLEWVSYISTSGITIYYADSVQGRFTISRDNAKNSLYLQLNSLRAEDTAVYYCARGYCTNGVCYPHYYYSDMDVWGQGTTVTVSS VL: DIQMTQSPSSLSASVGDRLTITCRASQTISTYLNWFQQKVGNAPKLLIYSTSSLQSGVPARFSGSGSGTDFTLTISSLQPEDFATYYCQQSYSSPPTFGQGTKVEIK in your reply.
3
